tested on: A1 adenosine receptor (Mesocricetus auratus)
Construct: endogenous in cells; host or cells: DDT1 (DDT1 MF-2) hamster vas deferens smooth muscle cells
assay info: cAMP assay (SPA) in DDT1 cells, forskolin-induced cAMP
Type: cell-based, hamster
condition description: 10 min, normalized to full agonist CPA; 5 μM forskolin, 50 μM rolipram
result type: Emax

Sample records with Emax:
{"columns": ["compound", "tested on", "reported value"],
 "data": [
  ["COC(=S)NCC1OC(n2cnc3c(N[C@@H]4CCOC4)ncnc32)C(O)C1O (some centres unmarked)", "A1 adenosine receptor (Mesocricetus auratus)", "94%"],
  ["OC1C(COC(=S)NC2CCC2)OC(n2cnc3c(N[C@@H]4CCOC4)ncnc32)C1O (some centres unmarked)", "A1 adenosine receptor (Mesocricetus auratus)", "78%"],
  ["O=C(NCC1OC(n2cnc3c(N[C@@H]4CCOC4)ncnc32)C(O)C1O)OC1CCCC1 (some centres unmarked)", "A1 adenosine receptor (Mesocricetus auratus)", "79%"],
  ["COC(=O)NCC1OC(n2cnc3c(N[C@@H]4CCOC4)ncnc32)C(O)C1O (some centres unmarked)", "A1 adenosine receptor (Mesocricetus auratus)", "86%"],
  ["O=C(NC1CCCC1C(=O)O)OCC1OC(n2cnc3c(N[C@@H]4CCOC4)ncnc32)C(O)C1O (some centres unmarked)", "A1 adenosine receptor (Mesocricetus auratus)", "95%"],
  ["O=C(NC1CCCC1)OCC1OC(n2cnc3c(NC4CCOC4)nc(Cl)nc32)C(O)C1O (centres unmarked)", "A1 adenosine receptor (Mesocricetus auratus)", "18%"],
  ["OC1CCCC1NC(=S)OCC1OC(n2cnc3c(N[C@@H]4CCOC4)ncnc32)C(O)C1O (some centres unmarked)", "A1 adenosine receptor (Mesocricetus auratus)", "115%"],
  ["O=C(N[C@H]1CCC[C@@H]1O)OC[C@H]1O[C@@H](n2cnc3c(N[C@@H]4CCOC4)ncnc32)[C@H](O)[C@@H]1O", "A1 adenosine receptor (Mesocricetus auratus)", "53%"]
]}

## Task Name the recorded Emax for CNC(=S)SCC1OC(n2cnc3c(NC4CCOC4)ncnc32)C(O)C1O (centres unmarked) .
## Result 82%

## Task Name the recorded Emax for CCOC(=O)C1C2C=CC(C2)C1NC(=O)OCC1OC(n2cnc3c(N[C@@H]4CCOC4)ncnc32)C(O)C1O (some centres unmarked) .
## Result -4%

## Task Name the recorded Emax for O=C(NC1CCC1)OCC1OC(n2cnc3c(N[C@@H]4CCOC4)ncnc32)C(O)C1O (some centres unmarked) .
## Result 45%

## Task Name the recorded Emax for "C=CCNC(=O)OC[C@H]1O[C@@H](n2cnc3c(N[C@@H]4CCOC4)ncnc32)[C@H](O)[C@@H]1O" .
## Result 17%

## Task Name the recorded Emax for OC1C(COC(=S)NC2CC2)OC(n2cnc3c(N[C@@H]4CCOC4)ncnc32)C1O (some centres unmarked) .
## Result 115%

## Task Name the recorded Emax for COC(=O)C1CCCC1NC(=O)OCC1OC(n2cnc3c(N[C@@H]4CCOC4)ncnc32)C(O)C1O (some centres unmarked) .
## Result -20%

====

tested on: A1 adenosine receptor (Cavia porcellus, UniProt P47745)
Construct: The hearts were quickly removed and rinsed in ice-cold Krebs-Henseleit solution
Sequence (P47745 1-326): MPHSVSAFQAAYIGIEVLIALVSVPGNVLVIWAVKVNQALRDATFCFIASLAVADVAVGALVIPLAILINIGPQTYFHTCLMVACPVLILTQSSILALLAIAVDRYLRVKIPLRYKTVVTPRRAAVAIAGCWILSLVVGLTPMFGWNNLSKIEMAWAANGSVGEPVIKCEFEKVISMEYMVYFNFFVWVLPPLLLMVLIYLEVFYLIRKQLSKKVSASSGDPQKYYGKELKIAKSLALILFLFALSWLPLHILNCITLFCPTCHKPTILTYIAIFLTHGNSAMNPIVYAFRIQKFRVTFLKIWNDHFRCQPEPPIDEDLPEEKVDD
assay info: Guinea pig isolated perfused heart: S-H interval, heart rate, atrial MAP
condition description: guinea pig isolated perfused hearts; read-out: EC50 to prolong S-H interval (negative dromotropic effect)
result type: EC50 (nM)
// note: answer is a bare numeric in nM

## Task Name the recorded EC50 for CNC(=O)OC[C@H]1O[C@@H](n2cnc3c(N[C@@H]4CCOC4)ncnc32)[C@H](O)[C@@H]1O [Compound 6] .
## Result 2800

====

tested on: A1 adenosine receptor (Mesocricetus auratus, UniProt A0A1U8BVR4)
Construct: endogenous in cells; host or cells: DDT1 (DDT1 MF-2) hamster vas deferens smooth muscle cells
Sequence (A0A1U8BVR4 1-326): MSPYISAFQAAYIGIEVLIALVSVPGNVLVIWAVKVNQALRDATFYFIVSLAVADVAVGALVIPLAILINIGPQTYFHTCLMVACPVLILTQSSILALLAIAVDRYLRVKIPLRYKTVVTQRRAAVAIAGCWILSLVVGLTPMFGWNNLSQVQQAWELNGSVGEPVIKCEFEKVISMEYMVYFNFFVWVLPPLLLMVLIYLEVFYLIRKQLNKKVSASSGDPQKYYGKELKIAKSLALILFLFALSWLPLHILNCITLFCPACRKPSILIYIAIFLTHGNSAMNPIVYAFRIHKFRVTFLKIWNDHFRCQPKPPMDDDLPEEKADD
assay info: [35S]GTPγS binding assay, A1-agonist stimulated
Type: biochemical, hamster
condition description: […], agonist stimulated [35S]GTPγS binding, CPA = 100%
# Emax per record follows
// note: answer is a bare numeric in %

Sample records with Emax:
{"columns": ["compound", "Emax (%)"],
 "data": [
  ["O=C(NC1CCCC1C(=O)O)OCC1OC(n2cnc3c(N[C@@H]4CCOC4)ncnc32)C(O)C1O (stereo partly shown)", 81],
  ["COC(=O)NCC1OC(n2cnc3c(N[C@@H]4CCOC4)ncnc32)C(O)C1O (stereo partly shown)", 77],
  ["CN(C)C(=S)OC[C@H]1O[C@@H](n2cnc3c(N[C@@H]4CCOC4)ncnc32)[C@H](O)[C@@H]1O", 85]
]}

## Task Name the recorded Emax for "CC(C)NC(=S)OC[C@H]1O[C@@H](n2cnc3c(N[C@@H]4CCOC4)ncnc32)[C@H](O)[C@@H]1O" .
## Result 84

====

tested on: A1 receptor (Mesocricetus auratus)
Construct: endogenous in cells; host or cells: DDT1 (DDT1 MF-2) hamster vas deferens smooth muscle cells
assay info: Competitive binding assay, DDT1 cell membranes, [3H]CCPA
Design: species or system hamster
condition description: [3H]CCPA 2 nM, in presence of Gpp(NH)p (low affinity form); read-out: Ki - DDT1 cell membrane In presence of Gpp (NH)p
result type: Ki (nM)
// note: answer is a bare numeric in nM

{"columns": ["molecule", "scale unit", "Ki"],
 "data": [
  ["CCNC(=O)NCC1OC(n2cnc3c(NC4CCOC4)ncnc32)C(O)C1O (stereo not shown)", "nM", 167],
  ["OC1C(COC(=S)NC2CCCCC2)OC(n2cnc3c(N[C@@H]4CCOC4)ncnc32)C1O (stereo partly shown)", "nM", 962],
  ["O=C(NC1CCCCC1)OC[C@H]1O[C@@H](n2cnc3c(N[C@@H]4CCOC4)ncnc32)[C@H](O)[C@@H]1O", "nM", 1090]
]}

## Task Name the recorded Ki for OC1C(COC(=S)NCc2ccccc2)OC(n2cnc3c(N[C@@H]4CCOC4)ncnc32)C1O (stereo partly shown) .
## Result 229

====

tested on: A1 receptor (Sus scrofa, UniProt I3LEN5)
Sequence (I3LEN5 1-326): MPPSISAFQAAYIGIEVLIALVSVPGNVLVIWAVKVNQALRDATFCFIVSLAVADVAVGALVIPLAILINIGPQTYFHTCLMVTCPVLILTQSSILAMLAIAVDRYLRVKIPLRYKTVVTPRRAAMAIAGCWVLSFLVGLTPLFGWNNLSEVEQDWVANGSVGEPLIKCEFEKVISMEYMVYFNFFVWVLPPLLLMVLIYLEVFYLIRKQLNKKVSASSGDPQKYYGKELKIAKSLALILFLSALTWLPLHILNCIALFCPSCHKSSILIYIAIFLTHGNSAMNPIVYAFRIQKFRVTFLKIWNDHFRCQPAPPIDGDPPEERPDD
result type: pKi
// scale note: pKi = -log10(conc_M); give the bare number

## Task Form entry - test system: A1 receptor (Sus scrofa, UniProt I3LEN5); read-out: pKi; compound: CNC(=O)OC[C@H]1O[C@@H](n2cnc3c(N[C@@H]4CCOC4)ncnc32)[C@H](O)[C@@H]1O [Compound 6]
## Result 6.64

====

tested on: A1 adenosine receptor (Mesocricetus auratus)
Construct: endogenous in cells; host or cells: DDT1 (DDT1 MF-2) hamster vas deferens smooth muscle cells
assay info: [35S]GTPγS binding assay, A1-agonist stimulated
Assay type: biochemical, hamster
condition description: […], agonist stimulated [35S]GTPγS binding, CPA = 100%
result type: Emax (%)
// note: answer is a bare numeric in %

## Task Name the recorded Emax for OC1C(CNC(=S)OC2CCCC2)OC(n2cnc3c(N[C@@H]4CCOC4)ncnc32)C1O (some centres unmarked) .
## Result 93

## Task Name the recorded Emax for CCCNC(=O)OCC1OC(n2cnc3c(N[C@@H]4CCOC4)ncnc32)C(O)C1O (some centres unmarked) .
## Result 73

## Task Name the recorded Emax for O=C(NC1CC1c1ccccc1)OC[C@H]1O[C@@H](n2cnc3c(N[C@@H]4CCOC4)ncnc32)[C@H](O)[C@@H]1O (some centres unmarked) .
## Result -6

## Task Name the recorded Emax for OC1C(COC(=S)N2CCCCC2)OC(n2cnc3c(N[C@@H]4CCOC4)ncnc32)C1O (some centres unmarked) .
## Result 88

## Task Name the recorded Emax for CCOC(=O)CCNC(=O)OCC1OC(n2cnc3c(N[C@@H]4CCOC4)ncnc32)C(O)C1O (some centres unmarked) .
## Result 47

## Task Name the recorded Emax for OC1C(COC(=S)NC2CCCCC2)OC(n2cnc3c(N[C@@H]4CCOC4)ncnc32)C1O (some centres unmarked) .
## Result 82

## Task Name the recorded Emax for O=C(O)CCNC(=O)OCC1OC(n2cnc3c(N[C@@H]4CCOC4)ncnc32)C(O)C1O (some centres unmarked) .
## Result 59

## Task Name the recorded Emax for OC1C(COC(=S)NC2CCC2)OC(n2cnc3c(N[C@@H]4CCOC4)ncnc32)C1O (some centres unmarked) .
## Result 79
